# experiment: Ratio of drug concentration in male ICR mouse skin to plasma at 4 mg/ml, TOP measured after 1 hrs by LC-MS/MS analysis
# Assay type: ADME, cell-free
# condition_parameters: topical or ocular

compound: N#Cc1ccc(O[C@H]2CC[C@H](NC(=O)c3ccc(C4CCN(CC5CCCN(c6ccc(C(=O)NC7CCC(=O)NC7=O)cc6)C5)CC4)cc3)CC2)cc1Cl (stereo partly specified)
Kp at 1 h: 71.5

----------
# experiment: Ratio of drug concentration in male ICR mouse skin to plasma at 4 mg/ml, TOP measured after 0.25 hrs by LC-MS/MS analysis
# Format: ADME, cell-free
# condition_parameters: topical or ocular

molecule: N#Cc1ccc(O[C@H]2CC[C@H](NC(=O)c3ccc(C4CCN(CC5CCCN(c6ccc(C(=O)NC7CCC(=O)NC7=O)cc6)C5)CC4)cc3)CC2)cc1Cl (stereo partly specified)
Kp at 0.25 h: 117
